Reference source for all entries: ChEMBL document CHEMBL1629507

assaySystem: Integrin alpha-V/beta-3 (Homo sapiens) (UniProt P05106+P06756)
experimentalProtocol: Inhibition of human alphaVbeta3 receptor expressed in african green monkey Vero E6 cells assessed as inhibition of SNV infection in cells at 1 uM by immunofluorescent assay
Assay type: cell-based
measurementLabel: inhibition (%)

>>> endpointvalue("O=C(Nc1ccccc1Cl)C(Cc1ccccc1)NS(=O)(=O)c1cccc2nsnc12 (configuration not stated)")
10
>>> endpointvalue("CC(NC(=O)C(Cc1ccccc1)NS(=O)(=O)c1cccc2nsnc12)c1ccccc1 (configuration not stated)")
2
>>> endpointvalue("COc1ccc(CNC(=O)c2ccc3c(c2)N(Cc2ccccc2)C(=O)c2ccccc2S3)cc1")
22
>>> endpointvalue("O=C(NCc1ccco1)C(Cc1ccccc1)NS(=O)(=O)c1ccc2nsnc2c1 (configuration not stated)")
21
>>> endpointvalue("COc1ccc(Cc2cccc(CNC(=O)C3CCCN(c4ncnc5onc(-c6ccc(F)cc6)c45)C3)c2)cc1 (configuration not stated)")
39
>>> endpointvalue("COc1ccccc1NC(=O)C(Cc1ccccc1)NS(=O)(=O)c1cccc2cccnc12 (configuration not stated)")
19.3
>>> endpointvalue("O=C(NCc1cccc(Cl)c1)C1CCCN(c2ncnc3onc(-c4ccc(F)cc4)c23)C1 (configuration not stated)")
6
